Measured Kd accompanies every entry in the list below.
# measurement_target: von Willebrand factor full length (Homo sapiens, UniProt P04275 SEQ:764-2813)
# method_summary: filter; 50% bound at 100 nM
# condition_parameters: tags: Calbiochem 681300
quantity_kind: Kd (nM)

>>> print(df.to_string())
                                     binder  unit_spec  endpoint_result
0  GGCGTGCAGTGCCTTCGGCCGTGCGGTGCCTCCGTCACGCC (ssDNA, 2'-OMe at 38; 3'-idT) [ARC1231]         nM                1
1  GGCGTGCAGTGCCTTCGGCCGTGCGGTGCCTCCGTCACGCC (ssDNA, 2'-OMe at 13; 3'-idT) [ARC1206]         nM                2
2  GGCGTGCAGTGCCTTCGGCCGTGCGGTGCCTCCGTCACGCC (ssDNA, 2'-OMe at 12; 3'-idT) [ARC1205]         nM                1
